pIC50 values by entry
Test system: KRAS PDC multicell spheroid viability
Test: Anticancer human tumor 521955-158-R6-J3-PDC patient-derived pancreatic carcinoma cell line growth inhibition [KRAS2]
Conditions: curve of first compound; second compound 10 µM
pIC50: −log10 of the molar value.

compound	pIC50
CC(=O)OC12COC1CC(O)C1(C)C(=O)C(O)C3=C(C)C(OC(=O)C(O)C(NC(=O)OC(C)(C)C)c4ccccc4)CC(O)(C(OC(=O)c4ccccc4)C21)C3(C)C (stereo not given) + COc1cc2nc(C)nc(NC(C)c3cc(N)cc(C(F)(F)F)c3)c2cc1OC1CCOC1	< 5.50
CC1COCCN1c1cc(-c2ccnn2C)c2ccnc(-c3ccn[nH]3)c2n1 (stereo not given) + CNCc1ccccc1-c1csc(C(C)Nc2nc(C)nc3cc(OC)c(OC)cc23)c1	> 8.00
CN(C)C/C=C/C(=O)Nc1cc2c(Nc3ccc(F)c(Cl)c3)ncnc2cc1O[C@H]1CCOC1 + C=CC(=O)N1CCN(c2nc(=O)n(-c3c(C)ccnc3C(C)C)c3nc(-c4c(O)cccc4F)c(F)cc23)C(C)C1	< 7.00
COc1cc(Nc2ncc3c(n2)-c2ccc(Cl)cc2C(c2c(F)cccc2OC)=NC3)ccc1C(=O)O + CNCc1ccccc1-c1csc(C(C)Nc2nc(C)nc3cc(OC)c(OC)cc23)c1	> 7.50

Ask: Using the record for CC1(C)CCC(CN2CCN(c3ccc(C(=O)NS(=O)(=O)c4ccc(NCC5CCOCC5)c([N+](=O)[O-])c4)c(Oc4cnc5[nH]ccc5c4)c3)CC2)=C(c2ccc(Cl)cc2)C1 + COc1cc2nc(C)nc(NC(C)c3cc(N)cc(C(F)(F)F)c3)c2cc1OC1CCOC1 , report its pIC50.
Result: > 7.50

====

Tested on: KRAS PDC multicell spheroid viability
Assay: Anticancer human tumor 521955-158-R6-J3-PDC cell line growth inhibition [KRAS2];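 also: drug exposure lasted seven days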;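 as to viability, T/C: 100% = DMSO vehicle wells and lower means fewer viable cells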
Conditions: second compound 1 µM; first compound 0.0316 µM; stronger effect = lower value
Text: Multicellular complex tumor spheroid response to RAS pathway inhibitors in combination with a targeted agents in patient-derived cell lines with oncogenic KRAS variants from multiple cancer types A high-throughput screen of multi-cell type tumor spheroids was designed to identify active combinations of targeted small molecules and KRAS pathway inhibitors. […] Compounds. […] If the clinical Cmax for an agent had not been determined, the highest concentration tested was 10 microM. […]
Quick list: viability, T/C per entry.
Quick note: give the figure in %, leave out the unit.

compound	test target	units of measure	viability, T/C
CC(=O)OC12COC1CC(O)C1(C)C(=O)C(O)C3=C(C)C(OC(=O)C(O)C(NC(=O)OC(C)(C)C)c4ccccc4)CC(O)(C(OC(=O)c4ccccc4)C21)C3(C)C (centres undefined) + CC1OCC2(CCN(c3cnc(Sc4ccnc(N)c4Cl)c(N)n3)CC2)C1N	KRAS PDC multicell spheroid viability	%	83.4
CC1(C)CCC(CN2CCN(c3ccc(C(=O)NS(=O)(=O)c4ccc(NCC5CCOCC5)c([N+](=O)[O-])c4)c(Oc4cnc5[nH]ccc5c4)c3)CC2)=C(c2ccc(Cl)cc2)C1 + C=CC(=O)N1CCN(c2nc(OCC3CCCN3C)nc3c2CCN(c2cccc4cccc(C)c24)C3)CC1CC#N	KRAS PDC multicell spheroid viability	%	82.4
O=C(c1cc(Cc2n[nH]c(=O)c3ccccc23)ccc1F)N1CCN(C(=O)C2CC2)CC1 + C=CC(=O)N1CCN(c2nc(=O)n(-c3c(C)ccnc3C(C)C)c3nc(-c4c(O)cccc4F)c(F)cc23)C(C)C1	KRAS PDC multicell spheroid viability	%	118
CC(=O)OC12COC1CC(O)C1(C)C(=O)C(O)C3=C(C)C(OC(=O)C(O)C(NC(=O)OC(C)(C)C)c4ccccc4)CC(O)(C(OC(=O)c4ccccc4)C21)C3(C)C (centres undefined) + CNCc1ccccc1-c1csc(C(C)Nc2nc(C)nc3cc(OC)c(OC)cc23)c1	KRAS PDC multicell spheroid viability	%	70.6
COc1cc(Nc2ncc3c(n2)-c2ccc(Cl)cc2C(c2c(F)cccc2OC)=NC3)ccc1C(=O)O + CC1OCC2(CCN(c3cnc(Sc4ccnc(N)c4Cl)c(N)n3)CC2)C1N	KRAS PDC multicell spheroid viability	%	102

Ask: What does the data say about its viability, T/C? Entry: CC1(C)CCC(CN2CCN(c3ccc(C(=O)NS(=O)(=O)c4ccc(NCC5CCOCC5)c([N+](=O)[O-])c4)c(Oc4cnc5[nH]ccc5c4)c3)CC2)=C(c2ccc(Cl)cc2)C1 + COc1cc2nc(C)nc(NC(C)c3cc(N)cc(C(F)(F)F)c3)c2cc1OC1CCOC1
Result: 90.1

Ask: What value of viability, T/C has been recorded for this entry: COc1cc2nccc(Oc3ccc(NC(=O)C4(C(=O)Nc5ccc(F)cc5)CC4)cc3)c2cc1OC + C=CC(=O)N1CCN(c2nc(OCC3CCCN3C)nc3c2CCN(c2cccc4cccc(C)c24)C3)CC1CC#N
Result: 81.1

Ask: What does the record list as viability, T/C for CC(=O)OC12COC1CC(O)C1(C)C(=O)C(O)C3=C(C)C(OC(=O)C(O)C(NC(=O)OC(C)(C)C)c4ccccc4)CC(O)(C(OC(=O)c4ccccc4)C21)C3(C)C (centres undefined) + C=CC(=O)N1CCN(c2nc(=O)n(-c3c(C)ccnc3C(C)C)c3nc(-c4c(O)cccc4F)c(F)cc23)C(C)C1 ?
Result: 87

Ask: Would you mind telling me what viability, T/C value was observed for Cn1ncnc1[C@H]1c2n[nH]c(=O)c3cc(F)cc(c23)N[C@@H]1c1ccc(F)cc1 + COc1cc2nc(C)nc(NC(C)c3cc(N)cc(C(F)(F)F)c3)c2cc1OC1CCOC1 ?
Result: 82.3

Ask: Which viability, T/C reading was recorded for the compound Cn1nccc1Nc1nccc(-c2cc3c(s2)C(C)(C)N(CCN2CCOCC2)C3=O)n1 + COc1cc2nc(C)nc(NC(C)c3cc(N)cc(C(F)(F)F)c3)c2cc1OC1CCOC1 ?
Result: 79.1

Ask: Consider the compound shown here: COc1cc(Nc2ncc3c(n2)-c2ccc(Cl)cc2C(c2c(F)cccc2OC)=NC3)ccc1C(=O)O + C=CC(=O)N1CCN(c2nc(=O)n(-c3c(C)ccnc3C(C)C)c3nc(-c4c(O)cccc4F)c(F)cc23)C(C)C1 What is its recorded viability, T/C?
Result: 93.2

Ask: State the recorded viability, T/C for this entry: CC(=O)OC12COC1CC(O)C1(C)C(=O)C(O)C3=C(C)C(OC(=O)C(O)C(NC(=O)OC(C)(C)C)c4ccccc4)CC(O)(C(OC(=O)c4ccccc4)C21)C3(C)C (centres undefined) + C=CC(=O)N1CCN(c2nc(OCC3CCCN3C)nc3c2CCN(c2cccc4cccc(C)c24)C3)CC1CC#N
Result: 82.2

====

System: KRAS PDC multicell spheroid viability
Experiment: Anticancer human tumor 521955-158-R6-J3-PDC cell line growth inhibition [KRAS2]; active means viability on the fitted dose curve at most 10% of control; inactive means the rest;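 also: drug exposure lasted seven days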
Conditions: second compound 3.16 µM; first compound 0.1 µM
Please state which outcome applies, choosing from y for active, n for inactive

compound	test target	class
CC(C)NCC(C(=O)N1CCN(c2ncnc3c2C(C)CC3O)CC1)c1ccc(Cl)cc1 (stereo not given) + CC1OCC2(CCN(c3cnc(Sc4ccnc(N)c4Cl)c(N)n3)CC2)C1N	KRAS PDC multicell spheroid viability	n

Ask: Tell me the assay call for CC1OCC2(CCN(c3cnc(Sc4ccnc(N)c4Cl)c(N)n3)CC2)C1N (stereo not given) + CNCc1ccccc1-c1csc(C(C)Nc2nc(C)nc3cc(OC)c(OC)cc23)c1 please.
Result: y

====

viability, T/C by entry:
Tested on: KRAS PDC multicell spheroid viability
Assay: Anticancer human tumor 521955-158-R6-J3-PDC cell line growth inhibition [KRAS2];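 also: drug exposure lasted seven days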;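 as to viability, T/C: 100% = DMSO vehicle wells and lower means fewer viable cells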
Details: second compound 0.0316 µM; first compound 0.01 µM; stronger effect = lower value

Example results:
compound	viability, T/C
CC(=O)OC12COC1CC(O)C1(C)C(=O)C(O)C3=C(C)C(OC(=O)C(O)C(NC(=O)OC(C)(C)C)c4ccccc4)CC(O)(C(OC(=O)c4ccccc4)C21)C3(C)C (configuration not stated) + C=CC(=O)N1CCN(c2nc(OCC3CCCN3C)nc3c2CCN(c2cccc4cccc(C)c24)C3)CC1CC#N	83.9%
CC1COCCN1c1cc(-c2ccnn2C)c2ccnc(-c3ccn[nH]3)c2n1 (configuration not stated) + C=CC(=O)N1CCN(c2nc(OCC3CCCN3C)nc3c2CCN(c2cccc4cccc(C)c24)C3)CC1CC#N	88%

Ask: Give the measured viability, T/C of CC(=O)Nc1cccc(-n2c(=O)n(C3CC3)c(=O)c3c(Nc4ccc(I)cc4F)n(C)c(=O)c(C)c32)c1 + C=CC(=O)N1CCN(c2nc(OCC3CCCN3C)nc3c2CCN(c2cccc4cccc(C)c24)C3)CC1CC#N .
Result: 83.9%

Ask: I am curious: what viability, T/C value has been reported for Cn1ncnc1[C@H]1c2n[nH]c(=O)c3cc(F)cc(c23)N[C@@H]1c1ccc(F)cc1 + C=CC(=O)N1CCN(c2nc(OCC3CCCN3C)nc3c2CCN(c2cccc4cccc(C)c24)C3)CC1CC#N ?
Result: 105%

Ask: What value of viability, T/C has been recorded for this entry: CC(C)n1nc(-c2ccc3oc(N)nc3c2)c2c(N)ncnc21 + C=CC(=O)N1CCN(c2nc(OCC3CCCN3C)nc3c2CCN(c2cccc4cccc(C)c24)C3)CC1CC#N
Result: 62.3%

Ask: Return reported viability, T/C; argument: CN(C)C/C=C/C(=O)Nc1cc2c(Nc3ccc(F)c(Cl)c3)ncnc2cc1O[C@H]1CCOC1 + C=CC(=O)N1CCN(c2nc(OCC3CCCN3C)nc3c2CCN(c2cccc4cccc(C)c24)C3)CC1CC#N
Result: 72.4%

Ask: # input compound: CCN1CCN(Cc2ccc(Nc3ncc(F)c(-c4cc(F)c5nc(C)n(C(C)C)c5c4)n3)nc2)CC1 + C=CC(=O)N1CCN(c2nc(OCC3CCCN3C)nc3c2CCN(c2cccc4cccc(C)c24)C3)CC1CC#N ; wanted: its viability, T/C
Result: 81.9%
